All figures here come from PubChem BioAssay (NCI).

# System: NCI-H23 lung
# protocol description: NCI tumour cell line growth inhibition, 48 h
Below, each entry is listed with its recorded TGI.

Consider the worked cases shown below.
>>> value("N#C/C(=C\\c1c(-c2ccccc2)[nH]c2ccccc12)C(=O)c1ccc(Cl)cc1")
"38.5 µM"
>>> value("O/N=C1\\CCc2cc(-c3nc(C4CCNCC4)[nH]c3-c3ccncc3)ccc21")
"> 25 µM"
>>> value("O=[N+]([O-])c1ccc(-c2ccc(/C=N/n3c(-c4ccc(Cl)cc4)n[nH]c3=S)o2)cc1")
"> 56.6 µM"
>>> value("CCCCN(CCCC)C(=O)C(=O)CC(=O)c1ccc(Br)cc1")
"> 100 µM"
>>> value("COC(=O)Nc1nc2ccc(C(=O)c3ccc[nH]3)cc2[nH]1")
"> 100 µM"
>>> value("CC(=O)OCC1OC(Nc2ccc3nc(C)n(-c4cccc(C)c4)c(=O)c3c2)C(OC(C)=O)C(OC(C)=O)C1OC(C)=O (stereo unspecified)")
"> 62.5 µM"
>>> value("Nc1nc(Cl)c(C=O)c(NCC2(CO)CC(CCc3ccccc3)C2)n1 (stereo unspecified)")
"5.49 µM"
>>> value("COc1cc2cc(Oc3ccc(NC(=O)Nc4cccc(C(F)(F)F)c4)cc3)c(C)nc2cc1OCCN1CCCCC1")
"3.26 µM"

Look at this compound and give its reported TGI. CC[C@@H](CCCC[C@@H]1CC[C@H]2CC(=O)C[C@@H]12)OC
> 100 µM

For CCOC(=O)/C(C1=N[C@H](C(=O)OCC)CS1)=C(\C)O , what is its reported TGI?
> 100 µM

# lookup: TGI of N[C@H]1C2C3CC4C5CC(C42)C1(c1ccccc1)C53 (stereo partly specified)
> 100 µM

Could you share which TGI value was measured for O=C1/C(=C\c2ccc([N+](=O)[O-])cc2)Sc2scc(-c3ccc(O)c(O)c3)[n+]21 ?
44.6 µM

Which measured TGI value corresponds to C/C(=N\N(C)C)c1sc(-n2nc(-c3ccccc3)cc2-c2ccccc2)nc1C ?
> 100 µM

Please report the recorded TGI for S=C(NNC1=NCCCN1)Nc1ccccc1 .
> 100 µM

// query TGI value for entry COc1cc2c(cc1OC)C(=O)C(Br)CC2 (stereo unspecified)
10.9 µM

Reported TGI for CC(=O)c1ccc(Nc2cc(-n3ccnc3)nc3ccccc23)cc1 : what is it?
> 100 µM

---

# Tested on: A549 NSCLC
# protocol description: NCI tumour cell line growth inhibition, 48 h; in the data active means GI50 below about 0.43 µM; inactive means the rest
Can you answer with just one of these options? active, inactive

Some solved cases for reference:
>>> class_name("OB([O][Hg][c]1ccccc1)[O][Hg][c]1ccccc1")
"inactive"
>>> class_name("C[C@@H](c1ccc2nccn2c1)n1nnc2ncc(-c3cnn(C)c3)nc21")
"inactive"
>>> class_name("C[C@H]1[C@H](OC(=O)CCC(=O)O)O[C@@H]2O[C@]3(C)CC[C@H]4[C@H](C)CC[C@@H]1[C@@]24OO3")
"inactive"
>>> class_name("Cc1ccc(S(=O)(=O)NC(CCC(=O)Nc2ccc(Cl)cc2)C(=O)Nc2ccc(Cl)cc2)cc1 (stereo unspecified)")
"active"
>>> class_name("Cc1cc(NC(=O)C2c3ccccc3C(=O)N(CC(C)C)C2c2cccs2)no1 (stereo unspecified)")
"inactive"

Recorded call for O=C(Nc1ccncc1)C(=O)c1cn(S(=O)(=O)c2ccc(Br)cc2)c2ccccc12 ?
inactive

Short answer needed: outcome of this test for COc1ccc(/C(=C/c2cc(OC)c(OC)c(OC)c2)[N+](=O)[O-])cc1 ?
inactive

What is the recorded call for this compound in the test? CCCCCCCCCCCCCCCCCCNC(=O)[C@H]1CSC(c2ccc(OC)c(F)c2)N1 (stereo partly specified)
inactive

Assay result, entry O=[N+]([O-])c1ccc(N/N=C\c2cc(Cl)ccc2O)nc1 — outcome?
inactive

Field: outcome | Entry: O=C(CCCc1c[nH]c2ccccc12)NC1CC(=O)c2c(Br)sc(Br)c21 (stereo unspecified)
inactive

What is the recorded call for this compound in the test? COc1ccc(/C=C2\CN(C(=O)CCN3CCC(=NO)CC3)C/C(=C\c3ccc(OC)cc3)C2=O)cc1
inactive

Test call for this compound, please: COc1ccc(-c2cc(-c3ccc(Nc4nc(Nc5ccc(Cl)cc5)nc(Nc5ccc(Cl)cc5)n4)cc3)nc(N)c2C#N)cc1
inactive

What was the test verdict on COc1ccc(N(C)c2nc(C)nc3ccccc23)cc1 ?
active

Kindly provide the recorded test outcome for the following compound: CC(=O)c1ccc(Nc2cc(-n3ccnc3)nc3ccccc23)cc1
inactive

Could you check what this test reported for O=[N+]([O-])c1ccc(Sc2ncccn2)c([N+](=O)[O-])c1 ?
inactive

Answer briefly: the call reported for CCOC(=O)/N=c1\ss/c(=N\C(=S)N(C)C)n1-c1ccccc1 in this assay.
inactive
